Biological target: T1, human transferrin receptor (recombinant, for surface plasmon resonance) (human, UniProt P02786 89-760)
T1 construct: also called huTfR; human transferrin receptor-biotinylated
T1 sequence (P02786 89-760 limits assumed): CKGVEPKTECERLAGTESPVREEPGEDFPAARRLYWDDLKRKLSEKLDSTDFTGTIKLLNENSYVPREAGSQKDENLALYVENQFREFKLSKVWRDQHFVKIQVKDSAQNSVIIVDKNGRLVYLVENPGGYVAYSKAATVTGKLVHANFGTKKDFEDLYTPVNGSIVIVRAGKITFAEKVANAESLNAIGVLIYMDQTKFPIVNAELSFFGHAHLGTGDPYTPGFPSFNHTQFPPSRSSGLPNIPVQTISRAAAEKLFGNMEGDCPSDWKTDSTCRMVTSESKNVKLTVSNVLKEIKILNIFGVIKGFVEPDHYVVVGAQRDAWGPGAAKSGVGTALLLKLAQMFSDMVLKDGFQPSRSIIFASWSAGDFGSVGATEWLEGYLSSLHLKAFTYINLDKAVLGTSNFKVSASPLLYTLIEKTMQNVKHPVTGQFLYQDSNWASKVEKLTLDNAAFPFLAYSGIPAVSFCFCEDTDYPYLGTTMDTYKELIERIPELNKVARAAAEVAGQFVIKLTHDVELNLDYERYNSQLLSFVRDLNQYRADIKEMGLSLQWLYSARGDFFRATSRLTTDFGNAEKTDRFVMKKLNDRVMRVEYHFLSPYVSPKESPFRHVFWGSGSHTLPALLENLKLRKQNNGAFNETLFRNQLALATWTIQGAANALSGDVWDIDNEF
Test: SPR
readout-kind: koff (s⁻¹)
Report as a plain number; the unit s⁻¹ is understood.

4/94 SEQ ID NO 195 / SEQ ID NO 209 (antibody, V domains shown) VH: QVQLVQSGAEVKKPGASVKVSCKASGFNIKDTYIHWVIQAPGQGLEWMGRIDPANGDTKSAPKFQVRVTITADTSTSTVYMELSSLRSEDTAVYYCVRDYLYPYYFDFWGQGTTVTVSS VL: KIVLTQSPGTLSLSPGERATLSCRASESVDTYVSWYQQKPGQAPRLLIYGASNRYTGIPDRFSGSGSGTDFTLTISRLEPEDFADYYCGQTYNYPLTFGQGTKLEI
0.000438
4/94 SEQ ID NO 196 / SEQ ID NO 208 (antibody, V domains shown) VH: QVQLVQSGAEVKKPGASVKVSCKASGFNIKDTYIHWVIQAPGQGLEWMGRIDPANGDTKSDPKFQGRVTITADTSTSTVYMELSSLRSEDTAVYYCVRDYLYPYYFDFWGQGTTVTVSS VL: EIVLTQSPGTLSLSPGERATLSCRASESVDTYVSWYQQKPGQAPRLLIYGASNRYTGVPDRFSGSGSGTDFTLTISRLEPEDFADYYCGQTYNYPLTFGQGTKLEI
0.000434

API: the following record is the query input.
### Prompt Name the recorded koff of the binder listed here: 4/94 SEQ ID NO 200 / SEQ ID NO 207 (antibody, V domains shown) VH: EVQLVESGGGLVQPGGSLRLSCAASGFNIKDTYIHWVIQAPGKGLEWVGRIDPANGDTKSDPSVQVRATISADTSKNTAYLQMNSLRAEDTAVYYCVRDYLYPYYFDFWGQGTTVTVSS VL: KIVLTQSPGTLSLSPGERATLSCRASESVDTYVSWYQQKPGQAPRLLIYGASNRYTGVPDRFSGSGSGTDFTLTISRLEPEDFADYYCGQTYNYPLTFGQGTKLEI
### Response 0.000299
